procedure.summary: Cytotoxicity against mouse RAW264.7 cells assessed as survival rate at 2.5 uM after 24 hrs by MTT assay
Format: cell-based
condition: read-out: Survival
assay.metric: viability at 24 h, 2.5 µM (%)
The answer is to be given in %; state only the numeric part.

Consider the reported viability at 24 h, 2.5 µM for these molecules:
[[record]]
chemical_string = "O=C(Nc1ccc(Br)cc1F)c1cc(I)ccc1O"
reported = 104

[[record]]
chemical_string = "O=c1oc2ccc(I)cc2c(=O)n1-c1ccc(F)cc1F"
reported = 97.5

[[record]]
chemical_string = "O=C(Nc1ccc(F)cc1F)c1cc(F)ccc1O"
reported = 99.2

[[record]]
chemical_string = "O=c1oc2ccc(I)cc2c(=O)n1-c1ccc(Br)cc1F"
reported = 109

[[record]]
chemical_string = "O=C1c2cc(I)ccc2Oc2cc([N+](=O)[O-])ccc2N1c1ccc(F)cc1F"
reported = 98.2


**Query** Read the entry `O=c1oc2ccc(F)cc2c(=O)n1-c1ccc(F)cc1F` and write its reported viability at 24 h, 2.5 µM.
**Result** 103

**Query** Return the recorded viability at 24 h, 2.5 µM value; entry: `O=C(O)c1cc(Br)ccc1O`
**Result** 101

**Query** Item `O=c1oc2ccc(F)cc2c(=O)n1-c1ccc(I)cc1F` : provide viability at 24 h, 2.5 µM
**Result** 102

**Query** For `O=C1c2cc(I)ccc2Oc2cc([N+](=O)[O-])ccc2N1c1ccc(Cl)cc1F` , write its viability at 24 h, 2.5 µM.
**Result** 94.9

**Query** Tell me measured viability at 24 h, 2.5 µM for `O=C(Nc1ccc(Cl)cc1F)c1cc(I)ccc1O` please.
**Result** 94

**Query** Find the measured viability at 24 h, 2.5 µM of `O=C(Nc1ccc(F)cc1F)c1cc(I)ccc1O` and report it.
**Result** 103

---

procedure.summary: Cytotoxicity against mouse RAW264.7 cells assessed as reduction in cell viability after 24 hrs by MTT assay
Format: cell-based
assay.metric: CC50 at 24 h (µM)
# output: bare number, implied unit µM

[[record]]
chemical_string = "O=c1oc2ccc(I)cc2c(=O)n1-c1ccc(I)cc1F"
assay_metric = "CC50 at 24 h"
units_label = "µM"
reported = 7.6

[[record]]
chemical_string = "O=c1oc2ccc(Br)cc2c(=O)n1-c1ccc(Br)cc1F"
assay_metric = "CC50 at 24 h"
units_label = "µM"
reported = 7.2

[[record]]
chemical_string = "O=C(Nc1ccc(F)cc1F)c1cc(Cl)ccc1O"
assay_metric = "CC50 at 24 h"
units_label = "µM"
reported = 14.6


**Query** Answer with the recorded CC50 at 24 h of `O=C(Nc1ccc(Br)cc1F)c1cc(I)ccc1O` only.
**Result** 8.4

---

procedure.summary: Cytotoxicity against mouse RAW264.7 cells assessed as survival rate at 2.5 uM after 24 hrs by MTT assay
Assay type: cell-based
condition: read-out: Survival
assay.metric: viability at 24 h, 2.5 µM (%)
Respond with the bare value in %.

[[record]]
chemical_string = "O=C(Nc1ccc(F)cc1F)c1cc(Br)ccc1O"
assay_metric = "viability at 24 h, 2.5 µM"
reported = 91.9

[[record]]
chemical_string = "O=C1c2cc(F)ccc2Oc2cc([N+](=O)[O-])ccc2N1c1ccc(F)cc1F"
assay_metric = "viability at 24 h, 2.5 µM"
reported = 90.1

[[record]]
chemical_string = "O=C(Nc1ccc(Br)cc1F)c1cc(F)ccc1O"
assay_metric = "viability at 24 h, 2.5 µM"
reported = 102

[[record]]
chemical_string = "O=c1oc2ccc(F)cc2c(=O)n1-c1ccc(Br)cc1F"
assay_metric = "viability at 24 h, 2.5 µM"
reported = 103


**Query** // Input: `O=c1oc2ccc(Br)cc2c(=O)n1-c1ccc(I)cc1F` . Output its viability at 24 h, 2.5 µM only.
**Result** 96.8
